tested on: NCI-H460 lung; assay: NCI-60 one-dose screen, 48 h (100 = growth as untreated, 0 = no growth, -100 = all killed); conditions: 10 µM unless noted
The panel holds about 83,000 compounds, 20% with a hit somewhere; the sample as a whole holds those more often.
Decision: growth compared against 20%; not below it gives met, below it gives not met.

-- ask State whether the measured growth reaches 20%, counting equality as reaching it, for `COc1ccc(/C=N/Nc2cc(=O)[nH]c3ccc(Cl)cc23)cc1`
-- reply met

-- ask Decide: growth of `O=c1[nH][n+](-c2ccc(Br)cc2)no1` >= 20%?
-- reply met

-- ask # check: growth of `CNCCCC12CCC(c3ccccc31)c1ccccc12` is greater than or equal to 20%
-- reply met

-- ask # bool: growth of `COc1ccc2sc3c(NCCCNCCO)nc4ccccc4c3c(=O)c2c1` >= 20%
-- reply not met

-- ask Determine whether measured growth meets or exceeds 20% for `COc1ccc(/C=N/Nc2cc(=O)[nH]c3ccc(C)cc23)cc1`
-- reply met

-- ask Does the reported growth for `CCN(CC)Cc1cc(Nc2c3ccc(Cl)cc3nc3ccc(OC)cc23)ccc1O` fall at or above the 20% mark?
-- reply met

-- ask For this molecule, is measured growth 20% or higher? `COc1cc(C(=O)N/N=C/c2cc3cc(OCc4ccccc4)ccc3nc2OC)cc(OC)c1OC`
-- reply met

-- ask Does growth meet or surpass 20% for COc1cccc2nc3n(c12)C(c1c(F)cccc1F)SC3 (stereo unspecified) ?
-- reply met

-- ask Determine whether this molecule has growth no lower than 20%: `O=C(/C=C/c1sc(Cl)nc1Cl)c1ccc(F)cc1`
-- reply met

-- ask Does the reported growth for `COc1cc(CNS(=O)(=O)c2ccc(C)cc2)ccc1OCc1cn(-c2ccccc2)nn1` fall at or above the 20% mark?
-- reply met

-- ask # bool: growth of `Cc1ccc2c(n1)C(=O)C(Cl)=C(Nc1ccccc1C(C)C)C2=O` >= 20%
-- reply met

-- ask Is growth for `Cc1cc(C)c(-c2c(N)cc(Br)cc2Br)c(N)c1` at or above 20%?
-- reply met

-- ask Is growth for CC1Cc2c(ncn3c(-c4ccc(F)cc4)nnc23)N(C)c2ccccc21 (stereo unspecified) at or above 20%?
-- reply not met

-- ask Answer whether growth of `CCCCCCNC(=O)Oc1ccc(/C(=C(\C)c2ccc(Cl)cc2)c2ccc(OCCN(CC)CC)cc2)cc1` is greater than or equal to 20%.
-- reply met

-- ask Given N#CC1=C(N)Oc2c(sc3c(Br)cccc23)C1c1ccc([N+](=O)[O-])cc1 (stereo unspecified) , state whether its growth is at least 20%.
-- reply not met

-- ask Does growth meet or surpass 20% for COc1ccc(C2CC(c3ccc(Nc4nc(Nc5ccc(F)cc5)nc(Nc5ccc(Cl)cc5)n4)cc3)=NN2C(C)=O)cc1 (stereo unspecified) ?
-- reply met

-- ask I'd appreciate it if you could say whether CCCCC1CCCC12NC(=O)NC2=O (stereo unspecified) has growth at least equal to 20%.
-- reply met

-- ask Item `CCc1cccc2c1S/C(=C/c1ccc(OC)cc1)C2=O` with growth of 20% or above?
-- reply met

-- ask State whether the measured growth reaches 20%, counting equality as reaching it, for `BrCCCc1n(Cc2ccc3ccccc3c2)c2ccccc2[n+]1Cc1ccc2ccccc2c1`
-- reply not met

-- ask Textbook exercise: given the entry `O=C(Nc1ccc(-c2nc(-c3cccc(OCCN4CCOCC4)c3)c(-c3ccnc(Br)c3)[nH]2)cc1)c1ccccc1` , state whether its growth is greater than or equal to 20%.
-- reply not met

-- ask Hi, just wondering whether CCC12CCC[N+]3([O-])CCC4(C(=Nc5ccccc54)C(O)(C(=O)OC)C1)C23 (stereo unspecified) shows growth of 20% or higher.
-- reply met

-- ask Decide: is the reported value of growth for `COc1ccc(-c2nc3sc(-c4ccc(Cl)cc4)cn3n2)cc1` equal to or greater than 20%?
-- reply not met

-- ask Would you say CCN1C(=O)N(CC)C2Nn3c(s/c(=C4\C(=O)Nc5ccccc54)c3=O)=NC21 (stereo unspecified) shows growth at minimum 20%?
-- reply met

-- ask Is growth for CCN1C(=O)N(CC)C2Nn3c(s/c(=C4\C(=O)N(CCC(C)C)c5ccccc54)c3=O)=NC21 (stereo unspecified) at or above 20%?
-- reply met

-- ask Does the molecule `Nc1nn(C(=O)Nc2ccc(Cc3ccccc3)cc2)c2ccc(Cl)cc12` have recorded growth that is 20% or more?
-- reply met

-- ask Kindly determine if growth recorded for `COc1ccc(-c2nnc(COc3ccc(Cl)cc3Cl)o2)cc1OC` is above or exactly 20%.
-- reply not met

-- ask Would you say NC1=C(c2nn[nH]n2)C(c2ccccc2Cl)c2ccc3ccccc3c2O1 (stereo unspecified) shows growth at minimum 20%?
-- reply met

-- ask Test whether the molecule `COc1cc(C(=O)c2cc(C)c3[nH]c4ccc(C)cc4c3c2C)cc(OC)c1OC` records growth of 20% or higher.
-- reply not met

-- ask Decide: growth of `COc1ccc(/C=C/c2c(C(=O)/C=C/c3ccc(C(F)(F)F)cc3)c(C)nc3ccccc23)cc1` >= 20%?
-- reply not met

-- ask Say whether `C[C@H]1[C@H]2[C@H]3CC[C@@H]4[C@@]5(C)CC[C@H](O)C(C)(C)[C@@H]5CC[C@@]4(C)[C@]3(C)CC[C@]23CO[C@]1(C)[C@@H](C(=O)/C=C\c1cccnc1)C3` shows growth of 20% or more.
-- reply met

-- ask Hello, I need to know if `CCOC(=O)c1c2c(n(-c3ccc(C#N)cc3)c1-c1ccccc1)C=CCC2` has measured growth not below 20%. Thanks!
-- reply met

-- ask Hi team, for COc1ccc(C2CC(c3ccc(Nc4ccnc5cc(Cl)ccc45)cc3)=NN2C=O)cc1 (stereo unspecified) , is the recorded growth at or above 20%?
-- reply met

-- ask Decide: growth of `COc1ccc(OC)c(/C=C/C(=O)N/N=C/c2ccccc2)c1` >= 20%?
-- reply not met

-- ask Reported growth at or above 20%? CNc1nc2c(s1)C(c1cc(F)ccc1F)CC(=O)N2 (stereo unspecified)
-- reply met

-- ask Record `CC[C@H](C)C(=O)O[C@H]1CCC=C2C=C[C@H](C)[C@H](CC[C@@H]3CC=CC(=O)O3)[C@H]21` ; criterion: growth no lower than 20%. Met?
-- reply met

-- ask Given `O=C(CSc1nccc(Nc2ccc(S(=O)(=O)Nc3nccs3)cc2)n1)c1ccc(C(F)(F)F)cc1` , state whether its growth is at least 20%.
-- reply met

-- ask Is growth for `Cc1cccc2c1S/C(=C/c1ccc([N+](=O)[O-])cc1)C2=O` at or above 20%?
-- reply met

-- ask Check this molecule for growth at or above 20%: `CN(C)CCNc1nc2ccccc2c2c(=O)c3cc(F)ccc3sc12`
-- reply not met

-- ask Please tell me: is the molecule `Cc1cc(=O)oc2cc(OC(=O)CN3CCN(C)CC3)ccc12` at or over 20% in terms of growth?
-- reply met

-- ask # check: growth of COc1cc(C2CC(c3cccc(Br)c3)=NN2C(C)=O)cc(OC)c1OC (stereo unspecified) is greater than or equal to 20%
-- reply not met

-- ask Decide: is the reported value of growth for `O=[N+]([O-])c1ccccc1NCSc1ccc(Cl)cc1` equal to or greater than 20%?
-- reply met
